Attribution: paper PMC6792352

assay-remarks: in vitro
test-context: rat, gh3-tre-luc cells, AC50 (uM) modified / 1000, Tox21_110001=Tox21_300492; viability, 1 nM T3 present, 24 h
quantity: CC50 at 24 h (µM)

# compound, reported-result
rows = [
    ("c1ccc(NNc2ccccc2)cc1 [1,2-Diphenylhydrazine]", 67.9),
]

---

Tested on: GH3-TRE-Luc cell line
test-context: read-out: AC50 (uM) modified / 1000; Tox21_110001=Tox21_111136; viability, 1 nM T3 present, 24 h

# molecule, CC50
data = [
    ("Cc1ncc[nH]1", "0.0572 µM"),
]

---

assay-remarks: in vitro
test-context: rat, gh3-tre-luc cells, AC50 (uM) modified / 1000, Tox21_110001=Tox21_202220; viability, 1 nM T3 present, 24 h
quantity: CC50 at 24 h (µM)

# molecule, reported-result
records = [
    ("Oc1ccc(-c2ccccc2)cc1", 62.2),
]

---

assay-remarks: in vitro
test-context: rat, gh3-tre-luc cells, AC50 (uM) modified / 1000, Tox21_110001=Tox21_201236; viability, 1 nM T3 present, 24 h

# molecule, measure-unit, CC50 at 24 h
records = [
    ("CN1CSC(=S)N(C)C1", "µM", 5.54),
]

---

Tested on: GH3-TRE-Luc cell line
test-context: read-out: AC50 (uM) modified / 1000; Tox21_110001=Tox21_111040; viability, 1 nM T3 present, 24 h
quantity: CC50

# molecule, quantity, reported-result
data = [
    ("CCCCCCCCCc1ccc(O)cc1", "CC50", "28.7 µM"),
]

---

Tested on: GH3-TRE-Luc cell line
test-context: read-out: AC50 (uM) modified / 1000; Tox21_110001=Tox21_110803; viability, 1 nM T3 present, 24 h

# molecule, measure-unit, CC50
rows = [
    ("COc1cc(/C=C/C(=O)CC(=O)/C=C/c2ccc(O)c(OC)c2)ccc1O", "µM", 22.1),
]

---

assay-remarks: in vitro
test-context: rat, gh3-tre-luc cells, AC50 (uM) modified / 1000

# compound, CC50 at 24 h
records = [
    ("CN(C)c1ccc(Cc2ccc(N(C)C)cc2)cc1", "> 90 µM"),
    ("C=CCN1C[C@H](C(=O)N(CCCN(C)C)C(=O)NCC)C[C@@H]2c3cccc4[nH]cc(c34)C[C@H]21", "5.04 µM"),
    ("OC[C@H]1OC(O)[C@H](O)[C@@H](O)[C@@H]1O (stereo partly shown)", "> 90 µM"),
    ("C[Si](C)(C)C", "> 90 µM"),
    ("C[N+](C)(C)CC(O)CCl (stereo not shown)", "> 90 µM"),
    ("CCC(C)NC(N)=O (stereo not shown)", "> 90 µM"),
    ("O=[N+]([O-])CCO", "> 100 µM"),
    ("NCCOCCN [2,2'-Oxybis(ethylamine)]", "> 90 µM"),
    ("Cc1ccc(C)c(N)c1", "> 90 µM"),
    ("C[C@@H]1CC(=O)NN=C1c1ccc(NN=C(C#N)C#N)cc1", "14.8 µM"),
]

---

The entries below come with measured CC50 at 24 h values attached.
assay-remarks: in vitro
test-context: rat, gh3-tre-luc cells, AC50 (uM) modified / 1000
Counter-ions that a name gives are not always drawn.
quantity: CC50 at 24 h

# compound, reported-result
records = [
    ("O=C(O)c1ccc(O)cc1 [4-Hydroxybenzoic acid]", "> 90 µM"),
    ("CC(C)CCCC(C)NC(C)C (stereo not drawn)", "> 50 µM"),
    ("COc1cc(O)c(C(=O)c2ccccc2)cc1S(=O)(=O)O", "> 90 µM"),
    ("Nc1ccc([N+](=O)[O-])cc1O", "82.7 µM"),
    ("OCCCCCCO", "> 90 µM"),
    ("C=C1/C(=C\\C=C2/CCC[C@]3(C)[C@@H]([C@H](C)/C=C/[C@@H](O)C4CC4)CC[C@@H]23)C[C@@H](O)C[C@@H]1O", "34.7 µM"),
    ("C[C@](N)(Cc1ccc(O)cc1)C(=O)O", "> 50 µM"),
    ("COc1ccc(C(=CC(=O)N2CCOCC2)c2ccc(Cl)cc2)cc1OC", "> 90 µM"),
    ("C=C(C)C(=O)OCCCCCCCCCC [Decyl methacrylate]", "> 90 µM"),
    ("Oc1ccccc1F", "> 90 µM"),
    ("O=C(NC(=O)c1c(F)cccc1F)Nc1cc(Cl)c(Oc2ncc(C(F)(F)F)cc2Cl)c(Cl)c1", "71.4 µM"),
    ("O[C@H]1[C@H](O)[C@@H](O)[C@H](O)[C@@H](O)[C@H]1O", "> 90 µM"),
    ("O=C(O)c1cc(/N=N/c2ccc(O)c(C(=O)O)c2)ccc1O [Olsalazine sodium]", "> 50 µM"),
    ("C=CCc1ccccc1OCC(O)CNC(C)C (stereo not drawn)", "> 50 µM"),
    ("CC[C@H](C)[C@H]1O[C@]2(C=C[C@@H]1C)C[C@@H]1C[C@@H](C/C=C(\\C)[C@@H](O[C@H]3C[C@H](OC)[C@@H](O[C@H]4C[C@H](OC)[C@H](NC(C)=O)[C@H](C)O4)[C@H](C)O3)[C@@H](C)/C=C/C=C3\\CO[C@@H]4[C@H](O)C(C)=C[C@@H](C(=O)O1)[C@]34O)O2", "7.24 µM"),
    ("CC1(C)C2=CCCC(C)(C)[C@]23CC[C@H]1C3 [(-)-Isolongifolene]", "> 90 µM"),
    ("COc1ccc(Cc2cnc(N)nc2N)cc1OC", "> 50 µM"),
    ("COc1ccc2cc(S(=O)(=O)N[C@H](CC(=O)N[C@H](Cc3ccc(CN4[C@H](C)CCC[C@@H]4C)cc3)C(=O)N(C)C(C)C)c3ccc4c(c3)OCO4)ccc2c1", "4.04 µM"),
    ("Cc1cc(NC(=O)C(=O)O)cc(C)c1Oc1ccc(O)c2c1CCC2", "> 90 µM"),
    ("O=C(CCC1CCN(Cc2ccccc2)CC1)c1ccc2c(c1)NCCCC2 [Zanapezil fumerate]", "> 50 µM"),
    ("C[C@H](N)C(=O)N[C@@H](C)P(=O)(O)O", "> 50 µM"),
    ("Nc1ccc2cc3ccc(N)cc3nc2c1 [Proflavin hydrochloride]", "> 90 µM"),
    ("CCCCCCCCCCCCN(CCCCCCCCCCCC)CCCCCCCCCCCC", "> 90 µM"),
    ("CC(C)(C)C(=O)OCOP(=O)(COCCn1cnc2c(N)ncnc21)OCOC(=O)C(C)(C)C", "> 50 µM"),
    ("COc1cc2c(cc1N)oc1ccccc12", "> 90 µM"),
    ("N=C1NC(=O)N2CC12 (stereo not drawn) [Imexon]", "> 50 µM"),
    ("CCCCCCCCCCCCCCC", "> 90 µM"),
    ("CC(=O)[C@@]1(O)CC[C@H]2[C@@H]3C=C(Cl)C4=CC(=O)[C@@H]5C[C@@H]5[C@]4(C)[C@H]3CC[C@@]21C", "> 50 µM"),
    ("CC(=O)Nc1cccc(O)c1", "> 90 µM"),
    ("NNC(=S)NN [Thiocarbazide]", "> 90 µM"),
    ("CCCCCCNC(=O)n1cc(F)c(=O)[nH]c1=O", "8.69 µM"),
    ("CCC(C)(C)CC", "> 100 µM"),
    ("Cc1cc(Nc2ccc(O)cc2)ccc1N [4-Amino-4'-hydroxy-3-methyldiphenylamine]", "11.4 µM"),
    ("CC(=O)C1CCCCC1=O (stereo not drawn)", "> 90 µM"),
    ("CC(C)(C)NCC(O)c1cc(O)cc(O)c1 (stereo not drawn) [Terbutaline hemisulfate]", "> 50 µM"),
    ("CCOC(=O)c1nc(C(Cl)(Cl)Cl)n(-c2ccc(Cl)cc2Cl)n1", "52.1 µM"),
]

---

Tested on: GH3-TRE-Luc cell line
test-context: read-out: AC50 (uM) modified / 1000; Tox21_110001=Tox21_201597; viability, 1 nM T3 present, 24 h
quantity: CC50 (µM)

# compound, target-entity, measure-unit, reported-result
rows = [
    ("CC/N=c1\\cc2oc3cc(NCC)c(C)cc3c(-c3ccccc3C(=O)OCC)c-2cc1C [Rhodamine 6G]", "GH3-TRE-Luc cell line", "µM", 0.49),
]

---

assay-remarks: in vitro
test-context: rat, gh3-tre-luc cells, AC50 (uM) modified / 1000, Tox21_110001=Tox21_113307; viability, 1 nM T3 present, 24 h

# molecule, CC50 at 24 h
rows = [
    ("CCCOC(=O)Cc1ccc(OCC(=O)N(CC)CC)c(OC)c1", "> 50 µM"),
]
